Listed compounds paired with reported pIC50
- Target: CHK2 (Homo sapiens, UniProt O96017)
- Construct: made in house
- Sequence (O96017 whole entry): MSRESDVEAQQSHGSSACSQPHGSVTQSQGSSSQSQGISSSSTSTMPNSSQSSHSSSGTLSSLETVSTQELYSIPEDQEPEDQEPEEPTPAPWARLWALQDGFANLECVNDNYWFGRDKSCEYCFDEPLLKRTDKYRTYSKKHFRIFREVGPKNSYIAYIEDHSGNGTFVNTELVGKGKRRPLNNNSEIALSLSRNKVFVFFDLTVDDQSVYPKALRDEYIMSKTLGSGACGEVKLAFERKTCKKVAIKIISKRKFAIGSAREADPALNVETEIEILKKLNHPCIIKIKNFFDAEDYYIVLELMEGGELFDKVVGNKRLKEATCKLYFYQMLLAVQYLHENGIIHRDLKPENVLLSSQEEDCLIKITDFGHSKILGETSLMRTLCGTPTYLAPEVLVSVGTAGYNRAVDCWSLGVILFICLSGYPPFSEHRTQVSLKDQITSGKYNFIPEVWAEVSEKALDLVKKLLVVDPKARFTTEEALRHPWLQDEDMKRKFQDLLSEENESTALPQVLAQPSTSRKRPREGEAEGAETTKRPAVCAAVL
- Assay explanation: CHK2 kinase activity assay (DELFIA, phosphorylation of a CDC25C peptide)
- Format: biochemical
- Condition summary: first set of tested compounds; ATP 30 μM, CHK2 1 nM; read-out: IC50, inhibition of CHK2 kinase activity in vitro
pIC50: −log10 of the molar value.

{"Compound": "O=C([C@H]1C[C@H](Nc2nc(-c3ccccc3O)nc3ccccc23)CN1)N1CCCCC1", "Target": "CHK2 (Homo sapiens, UniProt O96017)", "Quantity": "pIC50", "Readout value": "> 5.52"}

Ask: Reported pIC50 for Oc1ccccc1-c1nc(N[C@H]2CCNC2)c2ccc(-c3ccccc3)cc2n1 : what is it?
Result: > 5.52

Ask: Reported pIC50 for CCNC(=O)[C@H]1C[C@H](Nc2nc(-c3ccccc3O)nc3ccccc23)CN1 : what is it?
Result: > 5.52

====

Listed molecules paired with reported IC50
- Target: CHK2 (Homo sapiens)
- Construct: made in house
- Assay explanation: CHK2 kinase activity assay (DELFIA, phosphorylation of a CDC25C peptide)
- Format: biochemical
- Condition summary: following further studies; ATP 30 μM, CHK2 1 nM; read-out: IC50, inhibition of CHK2 kinase activity in vitro

Answered cases to consult:
{"Molecule": "COCCOc1cc2c(N[C@H]3CCNC3)nc(-c3cc(F)ccc3O)nc2cc1OC", "Target": "CHK2 (Homo sapiens)", "IC50": "≤ 0.3 µM"}
{"Molecule": "COc1cccc([C@@H]2CNC[C@H]2Nc2nc(-c3cc(F)ccc3O)nc3ccccc23)c1 (relative stereo)", "Target": "CHK2 (Homo sapiens)", "IC50": "≤ 0.3 µM"}
{"Molecule": "Oc1ccccc1-c1nc(N[C@H]2CCNC2)c2cc(-c3cn[nH]c3)ccc2n1", "Target": "CHK2 (Homo sapiens)", "IC50": "0.3 to 3 µM"}

Ask: Reported IC50 for Oc1ccccc1-c1nc(N[C@H]2CCNC2)c2cc(-c3ccccc3)ccc2n1 : what is it?
Result: 3 to 30 µM

====

- Target: CHK2 (Homo sapiens, UniProt O96017)
- Construct: made in house
- Assay explanation: CHK2 kinase activity assay (DELFIA, phosphorylation of a CDC25C peptide)
- Format: biochemical
- Condition summary: following further studies; ATP 30 μM, CHK2 1 nM; read-out: IC50, inhibition of CHK2 kinase activity in vitro
pIC50: −log10 of the molar value.
Quantity: pIC50

Answered cases to consult:
{"Molecular string": "CC(C)(O)CCc1ccc2nc(-c3cc(F)ccc3O)nc(N[C@H]3CCNC3)c2c1", "pIC50": "≥ 6.52"}
{"Molecular string": "CN1CCC[C@H](Nc2nc(-c3ccccc3O)nc3ccccc23)C1", "pIC50": "4.52 to 5.52"}
{"Molecular string": "Oc1ccccc1-c1nc(N[C@H]2CCNC2)c2ccc(-c3cn[nH]c3)cc2n1", "pIC50": "≥ 6.52"}

Lab note: next molecule to report on.
Ask: Reported pIC50 for CN(c1nc(-c2cc(Cl)ccc2O)nc2ccccc12)[C@H]1CCNC1 : what is it?
Result: ≥ 6.52

====

Listed molecules paired with reported IC50
- Target: CHK2 (Homo sapiens, UniProt O96017)
- Construct: made in house
- Assay explanation: CHK2 kinase activity assay (DELFIA, phosphorylation of a CDC25C peptide)
- Format: biochemical
- Condition summary: following further studies; ATP 30 μM, CHK2 1 nM; read-out: IC50, inhibition of CHK2 kinase activity in vitro

Answered cases to consult:
{"Molecule": "CN(C)C(=O)[C@H]1C[C@H](Nc2nc(-c3cc(F)ccc3O)nc3cc(CCCO)ccc23)CN1 [Compound A-061]", "Readout value": "≤ 300 nM"}
{"Molecule": "COC(=O)c1ccc(O)c(-c2nc(N[C@H]3CCNC3)c3ccccc3n2)c1 [Compound A-033]", "Readout value": "≤ 300 nM"}
{"Molecule": "Oc1ccc(F)cc1-c1nc(N[C@H]2CCNC2)c2ccc(F)cc2n1 [Compound A-114]", "Readout value": "≤ 300 nM"}
{"Molecule": "O=C([C@H]1C[C@H](Nc2nc(-c3ccccc3O)nc3ccccc23)CN1)N1CCCCC1 [Compound A-037]", "Readout value": "≤ 300 nM"}
{"Molecule": "CNC(=O)[C@H]1C[C@H](Nc2nc(-c3ccccc3O)nc3ccccc23)CN1 [Compound A-032]", "Readout value": "300 to 3000 nM"}

Ask: Reported IC50 for CCN(C)C(=O)[C@H]1C[C@H](Nc2nc(-c3ccccc3O)nc3ccccc23)CN1 [Compound A-050] : what is it?
Result: ≤ 300 nM

Ask: Reported IC50 for CC(C)(C)c1ccc(O)c(-c2nc(N[C@H]3CCNC3)c3ccccc3n2)c1 [Compound A-022] : what is it?
Result: 3000 to 30000 nM

Ask: Reported IC50 for Oc1ccccc1-c1nc(N[C@H]2CCNC2)c2cc(Br)ccc2n1 [Compound A-016] : what is it?
Result: 300 to 3000 nM

Ask: Reported IC50 for CCNC(=O)[C@H]1C[C@H](Nc2nc(-c3ccccc3O)nc3ccccc23)CN1 [Compound A-051] : what is it?
Result: 300 to 3000 nM

Ask: Reported IC50 for Oc1ccc(-c2ccc(F)cc2)cc1-c1nc(N[C@H]2CCNC2)c2ccccc2n1 [Compound A-100] : what is it?
Result: 3000 to 30000 nM

Ask: Reported IC50 for COc1ccc2c(N[C@@H]3CN[C@@H](CO)C3)nc(-c3cc(F)ccc3O)nc2c1 [Compound A-087] : what is it?
Result: ≤ 300 nM

Ask: Reported IC50 for Oc1ccc(Cl)cc1-c1nc(NC2CCCCNC2)c2ccccc2n1 (stereo not shown) [Compound A-058] : what is it?
Result: ≤ 300 nM

These data points were gathered from patent US8324226B2.
